Origin of values: ChEMBL document CHEMBL1909046

# targetOrTestSystem: 5-hydroxytryptamine receptor 1A (Rattus norvegicus, UniProt P19327); also: in other assays of this panel Not Active means under 50% inhibition at 10 µM
# Sequence (P19327 whole entry): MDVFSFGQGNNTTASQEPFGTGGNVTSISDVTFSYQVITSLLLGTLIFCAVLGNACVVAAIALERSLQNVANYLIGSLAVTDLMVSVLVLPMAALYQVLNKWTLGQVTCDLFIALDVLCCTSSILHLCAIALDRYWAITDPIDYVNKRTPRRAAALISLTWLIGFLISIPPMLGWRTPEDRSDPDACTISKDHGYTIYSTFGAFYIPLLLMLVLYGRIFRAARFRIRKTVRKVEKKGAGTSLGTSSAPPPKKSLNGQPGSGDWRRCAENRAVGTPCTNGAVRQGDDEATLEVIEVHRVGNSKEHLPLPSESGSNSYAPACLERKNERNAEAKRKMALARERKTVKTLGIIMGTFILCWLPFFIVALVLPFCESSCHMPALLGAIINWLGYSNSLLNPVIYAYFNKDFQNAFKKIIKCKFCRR
# Assay type: cell membranes, CHO-K1, Membrane
# assayConditions: cho-k1
measurementLabel: IC50

molecule="CC(C)(Sc1cc(C(C)(C)C)c(O)c(C(C)(C)C)c1)Sc1cc(C(C)(C)C)c(O)c(C(C)(C)C)c1 [PROBUCOL]" measurementlabel=IC50 testresult="Not Active"
molecule="CC(C(=O)O)c1ccc(-c2ccccc2)c(F)c1 (stereo not drawn) [FLURBIPROFEN]" measurementlabel=IC50 testresult="Not Active"
molecule="CCC[C@@H]1C[C@@H](C(=O)N[C@@H]([C@H]2O[C@H](SC)[C@H](O)[C@@H](O)[C@H]2O)[C@H](C)Cl)N(C)C1 [CLINDAMYCIN]" measurementlabel=IC50 testresult="Not Active"
molecule=N[C@@H](Cc1ccc(F)cc1)C(=O)O measurementlabel=IC50 testresult="Not Active"
molecule="CCc1oc2ccccc2c1C(=O)c1cc(Br)c(O)c(Br)c1 [BENZBROMARONE]" measurementlabel=IC50 testresult="Not Active"
molecule="Nc1ccc(S(=O)(=O)Nc2nccs2)cc1 [SULFATHIAZOLE]" measurementlabel=IC50 testresult="Not Active"

Okay, now this molecule:
Prompt: Give the measured IC50 of COc1ccccc1OCC(O)CO (stereo not drawn) [GUAIFENESIN] .
Completion: Not Active
